# System: 885724-159-R-J1-PDC KRAS PDC multicell spheroid viability
# testDetails: Anticancer human tumor 885724-159-R-J1-PDC patient-derived pancreatic adenocarcinoma cell line growth inhibition [KRAS2]; active means viability on the fitted dose curve at most 10% of control; inactive means the rest
# assayContext: second compound 3.16 µM; first compound 1 µM
The categories you may choose from are active, inactive

- compound: "Cn1nccc1Nc1nccc(-c2cc3c(s2)C(C)(C)N(CCN2CCOCC2)C3=O)n1 + CC1OCC2(CCN(c3cnc(Sc4ccnc(N)c4Cl)c(N)n3)CC2)C1N"
  cat: "inactive"
- compound: "COC(=O)c1ccc2c(C(=Nc3ccc(N(C)C(=O)CN4CCN(C)CC4)cc3)c3ccccc3)c(O)[nH]c2c1 + C=CC(=O)N1CCN(c2nc(=O)n(-c3c(C)ccnc3C(C)C)c3nc(-c4c(O)cccc4F)c(F)cc23)C(C)C1"
  cat: "inactive"
- compound: "CC1OCC2(CCN(c3cnc(Sc4ccnc(N)c4Cl)c(N)n3)CC2)C1N (centres undefined) + COc1cc2nc(C)nc(NC(C)c3cc(N)cc(C(F)(F)F)c3)c2cc1OC1CCOC1"
  cat: "inactive"

Lookup: Could you please tell me the result logged for COc1cc2nccc(Oc3ccc(NC(=O)C4(C(=O)Nc5ccc(F)cc5)CC4)cc3)c2cc1OC + CNCc1ccccc1-c1csc(C(C)Nc2nc(C)nc3cc(OC)c(OC)cc23)c1 in this assay?
Found: active

Lookup: Could you please tell me the result logged for COc1cc(Nc2ncc3c(n2)-c2ccc(Cl)cc2C(c2c(F)cccc2OC)=NC3)ccc1C(=O)O + COc1cc2nc(C)nc(NC(C)c3cc(N)cc(C(F)(F)F)c3)c2cc1OC1CCOC1 in this assay?
Found: inactive

Lookup: Could you please tell me the result logged for COC(=O)c1ccc2c(C(=Nc3ccc(N(C)C(=O)CN4CCN(C)CC4)cc3)c3ccccc3)c(O)[nH]c2c1 + COc1cc2nc(C)nc(NC(C)c3cc(N)cc(C(F)(F)F)c3)c2cc1OC1CCOC1 in this assay?
Found: inactive

====

# System: 885724-159-R-J1-PDC KRAS PDC multicell spheroid viability
# testDetails: Anticancer human tumor 885724-159-R-J1-PDC cell line growth inhibition [KRAS2]; active means viability on the fitted dose curve at most 10% of control; inactive means the rest;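 further: spheroids exposed to agents for 7 days before readout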
# assayContext: second compound 3.16 µM; first compound 1 µM
# Excerpt: Multicellular complex tumor spheroid response to RAS pathway inhibitors in combination with a targeted agents in patient-derived cell lines with oncogenic KRAS variants from multiple cancer types A high-throughput screen of multi-cell type tumor spheroids was designed to identify active combinations of targeted small molecules and KRAS pathway inhibitors. […] Compounds. […] If the clinical Cmax for an agent had not been determined, the highest concentration tested was 10 microM. […]
The categories you may choose from are active, inactive

- compound: "CCNC(=O)CC1N=C(c2ccc(Cl)cc2)c2cc(OC)ccc2-n2c(C)nnc21 (stereo not drawn) + CNCc1ccccc1-c1csc(C(C)Nc2nc(C)nc3cc(OC)c(OC)cc23)c1"
  systemUnderTest: "885724-159-R-J1-PDC KRAS PDC multicell spheroid viability"
  cat: "active"
- compound: "CC(C)NCC(C(=O)N1CCN(c2ncnc3c2C(C)CC3O)CC1)c1ccc(Cl)cc1 (stereo not drawn) + CC1OCC2(CCN(c3cnc(Sc4ccnc(N)c4Cl)c(N)n3)CC2)C1N"
  systemUnderTest: "885724-159-R-J1-PDC KRAS PDC multicell spheroid viability"
  cat: "inactive"

Let's switch to this compound now.
Lookup: Could you please tell me the result logged for O=C(c1cc(Cc2n[nH]c(=O)c3ccccc23)ccc1F)N1CCN(C(=O)C2CC2)CC1 + COc1cc2nc(C)nc(NC(C)c3cc(N)cc(C(F)(F)F)c3)c2cc1OC1CCOC1 in this assay?
Found: inactive
